- Tested on: JAK1-dependent STAT6 phosphorylation downstream of IL-13 stimulation in TF-1 human erythroleukemia cells
- protocolSummary: JAK1 pathway assay in TF-1 cells (IL-13-pSTAT6, MSD)
- Assay type: cell-based
- testConditions: Homo sapiens, TF-1, TF-1 cells, read-out: IL13-pSTAT6 EC50_TF-1
Where a name gives a salt, the structure may show the parent alone.
readout: EC50 (nM)
State the answer as a number, implicitly in nM.

CCNC(=O)CCCN1CCC(n2cc(NC(=O)c3cnn4cccnc34)c(-c3cc(Cl)ccc3OC(F)F)n2)CC1	31.8
CN(C)C1CCN(C(=O)c2ccc(-n3cc(NC(=O)c4cnn5cccnc45)c(-c4cc(Cl)ccc4OC(F)F)n3)cc2)CC1 [Example 302, hydrochloride]	16.2
CN(C)C(=O)CCCN(C)C1CCN(C(=O)Cn2cc(NC(=O)c3cnn4cccnc34)c(-c3cc(Cl)ccc3OC(F)F)n2)CC1	299

Endpoint output: EC50 of O=C(Nc1cn(CC(=O)N2C[C@H]3CN(CC4CCOCC4)C[C@H]3C2)nc1-c1cc(Cl)ccc1OC(F)F)c1cnn2cccnc12 . Value? 6.2

Endpoint output: EC50 of CC(=O)N1CCC(N2CCC(n3cc(NC(=O)c4c(N)nn5cccnc45)c(-c4cc(Cl)ccc4OC(F)F)n3)CC2)CC1 . Value? 12.8

----------
- system: isolated recombinant JAK2 kinase domain (Homo sapiens (Human), UniProt O60674)
- Sequence (O60674 849-1124): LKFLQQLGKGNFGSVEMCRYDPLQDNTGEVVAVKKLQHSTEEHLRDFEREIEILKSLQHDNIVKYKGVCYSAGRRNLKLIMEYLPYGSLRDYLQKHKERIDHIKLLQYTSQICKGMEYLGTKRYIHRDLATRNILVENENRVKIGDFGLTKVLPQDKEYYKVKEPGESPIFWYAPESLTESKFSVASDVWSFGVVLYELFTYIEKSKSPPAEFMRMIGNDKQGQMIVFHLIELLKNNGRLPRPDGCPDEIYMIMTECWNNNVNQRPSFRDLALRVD
- protocolSummary: JAK2 enzyme assay (Caliper LabChip, peptide phosphorylation)
- testConditions: 25 μM ATP
readout: Ki (nM)
State the answer as a number, implicitly in nM.

CN(C)C1CN(C(=O)Cn2cc(NC(=O)c3cnn4cccnc34)c(-c3cc(Cl)ccc3OC(F)F)n2)C1	0.84
CC(C)(C)OC(=O)N1CC[C@H](O)[C@@H](n2cc(NC(=O)c3cnn4cccnc34)c(-c3cc(Cl)ccc3OC(F)F)n2)C1 (single isomer, unassigned)	1.06

Kindly review the next molecule as well.
Endpoint output: Ki of CN[C@H]1C[C@@H](n2cc(NC(=O)c3c(N)nn4cccnc34)c(-c3cc(Cl)ccc3OC(F)F)n2)C1 . Value? 0.18

----------
- Test system: JAK1-dependent STAT6 phosphorylation downstream of IL-13 stimulation in BEAS-2B human bronchial epithelial cells
- protocolSummary: JAK1 pathway assay in BEAS-2B cells (IL-13-pSTAT6, MSD)
- Format: cell-based
- testConditions: read-out: IL13-pSTAT6 EC50 (uM)_BEAS-2B
Examples of molecules with documented EC50 follow.
State the answer as a number, implicitly in µM.

// below: answered molecules
CN1CCN(C(=O)C2CCN(C(=O)Cn3cc(NC(=O)c4cnn5cccnc45)c(-c4cc(Cl)ccc4OC(F)F)n3)CC2)CC1 [Example 398]	0.0183
O=C(Nc1cn(CCNCc2ccccc2)nc1-c1cc(Cl)ccc1OC(F)F)c1cnn2cccnc12 [Example 313]	0.0218
O=C(Nc1cn(CCNCc2ccccc2O)nc1-c1cc(Cl)ccc1OC(F)F)c1cnn2cccnc12 [Example 326]	0.007

Endpoint output: EC50 of CN(C)CC(O)Cn1cc(NC(=O)c2cnn3cccnc23)c(-c2cc(Cl)ccc2OC(F)F)n1 (stereo not shown) [Example 404] . Value? 0.0078
